Reported log10 S [M] is given for each of the following compounds.
# METHOD_NOTES: Drug solubility in medium-chain triglycerides (MCT, Miglyol 812 N); SORESOS 96-well assay, miniaturized shake-flask or literature
# EXPERIMENTAL_SETUP: decadic logarithm of molar solubility in MCTs (Miglyol 812 N), 24 h at room temperature; no literature source given
Number only, in M; omit the unit.

// solved cases for log10 S [M] follow
CCOC(=O)C1=C(C)NC(C)=C(C(=O)OCC)C1c1ccccc1/C=C/C(=O)OC(C)(C)C	-2.00
O=C(Nc1ccc(Cl)cn1)[C@@H]1CN(CC(F)F)C[C@H]1C(=O)Nc1ccc(-n2ccccc2=O)cc1F	-2.53
COc1ccc(N2CCOCC2)c2sc(NC(=O)c3ccnc(CN4CCCC4)c3)nc12	-3.00

Entry "O=C(O)c1ccccc1Nc1cccc(C(F)(F)F)c1" has what log10 S [M]?
-0.68

Entry "Cc1cc(-c2cccc(C3=Nc4cc(C)c(C(F)(F)F)cc4NC(=O)C3)c2)ccn1" has what log10 S [M]?
-2.89

Entry "CN1CC(=O)N2[C@H](c3ccc4c(c3)OCO4)c3[nH]c4ccccc4c3C[C@@H]2C1=O" has what log10 S [M]?
-2.99

Entry "COc1ccc(Cl)cc1S(=O)(=O)N1CCOc2ccc(C(=O)Nc3ccc(C(=O)O)cc3)cc21" has what log10 S [M]?
-4.05

Entry "CC(C)(C(=O)NCC(F)(F)C(F)(F)F)C(=O)N[C@@H]1C(=O)Nc2ccccc2-c2ccccc21" has what log10 S [M]?
-2.24

Entry COc1ccc(N2CCOCC2)c2sc(NC(=O)N(C)C3CCC(O)CC3)nc12 (centres unmarked) has what log10 S [M]?
-3.39

Entry "FC(F)c1ncn2c1Cn1ncnc1-c1cc(Br)ccc1-2" has what log10 S [M]?
-2.98

Entry "Cn1nnnc1Cn1nnc2c(N3CC[C@@H](O)C3)nc(C(C)(C)C)nc21" has what log10 S [M]?
-1.56

Entry "Cc1onc(-c2ccccn2)c1COc1ccc(C(=O)N2CCOCC2)cn1" has what log10 S [M]?
-1.90

Entry "Cn1c(COc2cc(Cl)c(C#N)cc2C(C)(C)C)n[nH]c1=O" has what log10 S [M]?
-2.76

Entry "CC(C)C(=O)c1c(C(C)C)nn2ccccc12" has what log10 S [M]?
0.0143

====

Reported log10 S [M] is given for each of the following molecules.
# METHOD_NOTES: Drug solubility in medium-chain triglycerides (MCT, Miglyol 812 N); SORESOS 96-well assay, miniaturized shake-flask or literature
# EXPERIMENTAL_SETUP: decadic logarithm of molar solubility in MCTs (Miglyol 812 N), 24 h at room temperature; no literature source given
Number only, in M; omit the unit.

// solved cases for log10 S [M] follow
CCO[C@H](Cc1ccc2c(ccn2Cc2nc(-c3ccccc3Cl)oc2C)c1)C(=O)O [RO4552952]	-1.66
COc1ccc(N2CCCCC2)c2sc(NC(=O)c3ccc(F)cc3)nc12 [RO0718883]	-1.84
Cn1ncc(C(=O)N2CCOCC2)c1C(=O)Nc1ccn2nc(-c3ccccc3)nc2c1 [RO5545965]	-3.23
CO[C@@H](Cc1ccc(OCCc2nc(-c3ccccc3)oc2C)c2ccsc12)C(=O)O [aleglitazar]	-2.77
Cc1cc(C#N)cc(C)c1Oc1nc(Nc2ccc(C#N)cc2)nc(N)c1Br [etravirine]	-3.28
COc1ccc(CCN2CCC(Nc3nc4ccccc4n3Cc3ccc(F)cc3)CC2)cc1 [astemizole]	-2.37

Next molecule, log10 S [M] to be filled in.
Entry CN1C(=O)N(c2c(F)cc(C#Cc3ccccc3)cc2F)C(=O)C[C@]12CCCc1ncccc12 [RO7059466] has what log10 S [M]?
-2.38
